Molecular target: T1, FcRL2, overexpressed on 3T3 cells (UniProt Q96LA5 20-508, limits assumed)
T1 construct: whole, on cells
T1 sequence (looked up): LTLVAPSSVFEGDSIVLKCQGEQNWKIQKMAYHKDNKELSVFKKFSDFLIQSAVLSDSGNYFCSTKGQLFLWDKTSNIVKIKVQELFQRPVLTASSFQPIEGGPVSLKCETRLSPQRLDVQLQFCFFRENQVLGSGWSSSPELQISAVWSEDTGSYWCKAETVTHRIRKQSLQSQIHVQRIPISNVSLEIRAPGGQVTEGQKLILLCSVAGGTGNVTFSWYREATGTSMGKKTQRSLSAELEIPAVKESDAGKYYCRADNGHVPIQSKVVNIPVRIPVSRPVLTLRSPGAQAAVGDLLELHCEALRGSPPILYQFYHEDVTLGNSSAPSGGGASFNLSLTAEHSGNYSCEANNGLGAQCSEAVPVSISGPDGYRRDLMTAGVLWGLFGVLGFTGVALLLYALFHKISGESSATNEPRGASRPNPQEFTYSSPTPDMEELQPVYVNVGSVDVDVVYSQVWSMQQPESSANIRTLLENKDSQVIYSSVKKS
Assay: phage clone on 3T3-FcRL2 cells
EXPERIMENTAL ENDPOINT: binding result

ET200-099 (scFv, screened as phage clone; entry is VL-linker-VH-His tag-HA tag) scFv: QSVLTQPPSASGTPGQRVTISCSGSSSNIGSNTVNWYQQLPGTAPKLLIYSNDQRPSGVPDRFSGSKSGTSASLAISGLQSEDEADYYCASWDDSLNGRYVFGTGTKVTVLGSRGGGGSGGGGSGGGGSLEMAQVQLVQSGAEVRKPGASVKVSCKTSGYTFSWYAIHWVRQAPGQRLEWMGWINAGNGNTKYSQKFQGRVSLTRDTSASTAYMELSSLRSDDTAVYYCARPDNYGSGGDVFDIWGQGTMVTVSSTSGQAGQHHHHHHGAYPYDVPDYAS | no binding
ET200-112 (scFv, screened as phage clone; entry is VL-linker-VH-His tag-HA tag) scFv: QAVLTQPPSASGTPGQRVTISCSGSSSNIGSNTVNWYQQLPGTAPKLLMYSNDQRPSGVPDRFSGSKSGTSASLAISGLQSEDEADYYCAAWDDSLNGYVFAAGTQLTVLSSRGGGGSGGGGSGGGGSLEMAQVQLQQWGAGLLKPSETLSLTCAVYGGSFSGYYWSWIRQPPGKGLEWIGEINHSGSTNYNPSLKSRVTISVDTSKNQFSLKLSSVTAADTAVYYCAREGLDAFDIWGQGTMVTVSSTSGQAGQHHHHHHGAYPYDVPDYAS | no binding
